Sourced from paper PMC7857870

System: human colon adenocarcinoma (HT29)
assay_procedure: MTT cytotoxicity assay, 72 h
Type: cell-based
measurement_parameters: HT-29, MTT 72 h, read-out: IC50 ± SD, HT29
observation_type: IC50 (nM)

{"molecule": "COc1cc([C@@H]2c3cc4c(cc3[C@H](O)[C@H]3COC(=O)[C@H]23)OCO4)cc(OC)c1OC [Podophyllotoxin]", "unit_annotation": "nM", "experimental_result": 2}
{"molecule": "COc1cc(C2c3cc4c(cc3C(OS(=O)(=O)Nc3ccccn3)C3COC(=O)C23)OCO4)cc(OC)c1OC (stereo not drawn) [Compound 5]", "unit_annotation": "nM", "experimental_result": 1050}
{"molecule": "COc1cc(C2c3cc4c(cc3C(OS(N)(=O)=O)C3COC(=O)C23)OCO4)cc(OC)c1OC (stereo not drawn) [Compound 2, 4-O-Podophyllotoxin Sulfamate]", "unit_annotation": "nM", "experimental_result": 1340}
{"molecule": "COc1cc(C2c3cc4c(cc3C(OS(=O)(=O)NCCc3ccccn3)C3COC(=O)C23)OCO4)cc(OC)c1OC (stereo not drawn) [Compound 4]", "unit_annotation": "nM", "experimental_result": 228}
{"molecule": "COc1cc(C2c3cc4c(cc3C(OS(=O)(=O)Nc3ccc5cc6ccccc6cc5c3)C3COC(=O)C23)OCO4)cc(OC)c1OC (stereo not drawn) [Compound 7]", "unit_annotation": "nM", "experimental_result": 5080}
{"molecule": "COc1cc(C2c3cc4c(cc3C(OS(=O)(=O)NCc3ccccn3)C3COC(=O)C23)OCO4)cc(OC)c1OC (stereo not drawn) [Compound 3]", "unit_annotation": "nM", "experimental_result": 222}
